test system: T1, SYNJ2BP PDZ domain (human, UniProt P57105 13-100)
T1 sequence (looked up): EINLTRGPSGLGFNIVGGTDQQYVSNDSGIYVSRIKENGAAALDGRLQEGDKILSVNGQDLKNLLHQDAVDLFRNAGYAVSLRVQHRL
test name: fluorescence polarisation; direct: N-terminally fluorescein-labelled PBM peptide (tracer) with increasing amounts of MBP-PDZ; 384-well plates; triplicate; direct binding model (ProFit)
condition description: both partners purified
Where no end group is shown, it is not given here.
quantity measured: Kd (nM)
Note: unit nM is implicit; provide only the numeric part.

Entry fluorescein-RTRRETQL (source: synthetic peptide) [f16E6, fluorescein-labelled HPV16 E6 PBM peptide] : reported Kd = ? 2280
